tested_on: VEGFR2, unphosphorylated (Homo sapiens (Human), UniProt P35968)
Sequence (P35968 whole entry, looked up): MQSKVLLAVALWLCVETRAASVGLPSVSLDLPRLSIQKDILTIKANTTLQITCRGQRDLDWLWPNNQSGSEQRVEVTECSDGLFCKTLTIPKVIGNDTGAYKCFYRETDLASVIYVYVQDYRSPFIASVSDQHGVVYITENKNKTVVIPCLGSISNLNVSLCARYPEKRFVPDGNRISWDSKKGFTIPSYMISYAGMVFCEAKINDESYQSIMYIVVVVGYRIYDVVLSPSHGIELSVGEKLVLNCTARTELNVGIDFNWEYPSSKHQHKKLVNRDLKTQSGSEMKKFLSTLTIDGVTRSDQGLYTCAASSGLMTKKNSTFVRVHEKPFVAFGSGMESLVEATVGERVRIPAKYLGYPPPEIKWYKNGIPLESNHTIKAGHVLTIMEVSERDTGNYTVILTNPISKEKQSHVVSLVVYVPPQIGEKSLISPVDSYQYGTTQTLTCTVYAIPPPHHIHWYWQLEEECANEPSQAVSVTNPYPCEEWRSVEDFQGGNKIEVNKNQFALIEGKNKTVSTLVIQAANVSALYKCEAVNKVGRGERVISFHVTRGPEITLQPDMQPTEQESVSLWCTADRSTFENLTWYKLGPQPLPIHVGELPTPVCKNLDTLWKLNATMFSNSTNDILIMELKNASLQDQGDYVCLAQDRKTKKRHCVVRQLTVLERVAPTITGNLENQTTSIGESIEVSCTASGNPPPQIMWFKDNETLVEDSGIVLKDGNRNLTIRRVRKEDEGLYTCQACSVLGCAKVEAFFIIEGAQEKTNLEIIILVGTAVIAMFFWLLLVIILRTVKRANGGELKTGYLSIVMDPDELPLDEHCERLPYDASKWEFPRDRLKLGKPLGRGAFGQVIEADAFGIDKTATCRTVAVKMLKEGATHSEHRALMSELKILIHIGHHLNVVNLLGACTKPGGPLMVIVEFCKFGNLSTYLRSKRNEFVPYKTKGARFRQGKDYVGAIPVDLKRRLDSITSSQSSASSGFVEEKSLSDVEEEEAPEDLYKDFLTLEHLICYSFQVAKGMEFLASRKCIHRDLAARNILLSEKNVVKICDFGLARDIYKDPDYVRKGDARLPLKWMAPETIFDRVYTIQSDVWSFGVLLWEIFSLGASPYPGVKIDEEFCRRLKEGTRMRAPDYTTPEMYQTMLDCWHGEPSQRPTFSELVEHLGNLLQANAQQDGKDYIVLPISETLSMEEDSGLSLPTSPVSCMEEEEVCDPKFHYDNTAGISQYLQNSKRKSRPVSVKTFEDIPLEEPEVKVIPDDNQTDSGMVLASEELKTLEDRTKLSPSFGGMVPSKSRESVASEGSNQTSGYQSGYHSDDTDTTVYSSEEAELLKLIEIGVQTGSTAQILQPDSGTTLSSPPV
procedure_text: VEGFR ADP GLO assay
experimental_parameters: 5 nM VEGFR2, 1.2 mM ATP, 1 mg/mL Srctide, 180 min
Protocol: Assay buffer stock contains 50 mM HEPES pH7.5, 10 mM MgCl2, 0.01% Brij-35, and 1 mM EGTA. Unphosphorylated VEGFR2. 52.6 μM in 50 mM Tris-HCl, pH 8.0, 50 mM NaCl, 5% Glycerol, 0.5 mM TCEP. Store at −80° C. in aliquots. 10 mg/mL srctide solution, prepared in Assay buffer (Assay buffer stock with 2 mM DTT, 0.1% Pluronic F-127, and 0.1 mg/mL ovalbumin). […] Step 5. […] Centrifuge at 1000 rpm for 1 min; Incubate at room temperature for 1 hour; Read Luminescence on a plate reader. […]
pIC50: −log10 of the molar value.
measure: pIC50

C[C@H]1CCCN1CCNC(=O)c1ccc(F)c(Nc2nn(C)c3nc(Nc4cnn(C)c4)ncc23)c1 [Example 119] ... 5.18
Cc1ncc(C(=O)NCCN2CCC3(CC3)C2)cc1Nc1nn(C)c2nc(Nc3cnn(C)c3)ncc12 [Example 90] ... < 5.12
Cc1ncc(NC(=O)NCCN2CCCC2(C)C)cc1Nc1nn(C)c2nc(Nc3cncnc3)ncc12 [Example 16] ... < 5.12
Cc1ncc(C(=O)NCCN2CCCC2(C)C)cc1Nc1nn(C)c2nc(Nc3cnn4c3OCCC4)ncc12 [Example 163] ... < 5.12
CO[C@H]1CCN(CC(=O)Nc2cnc(C)c(Nc3nn(C)c4nc(Nc5cnn(C)c5)ncc34)c2)C1 [Example 136] ... < 5.12

# per-item lookup of pIC50; items listed below
1. Cc1ncc(NC(=O)CN2CCCC2(C)C)cc1Nc1nn(C)c2nc(Nc3cnn(C)c3)ncc12 [Example 70]
2. Cc1ncc(C(=O)NCCN2CCCC2(C)C)cc1Nc1nn(C)c2nc(Nc3cncc(C(N)=O)c3)ncc12 [Example 29]
3. COc1ncccc1Nc1ncc2c(Nc3cc(NC(=O)CN4CCC[C@@H]4C)cnc3C)nn(C)c2n1 [Example 146]
4. Cn1cc(Nc2ncc3c(Nc4cc(C(=O)NCCN5CCC6(CC6)C5)ccc4F)nn(C)c3n2)cn1 [Example 122]
5. COCCn1cc(Nc2ncc3c(Nc4cc(NC(=O)CN5CCCC5(C)C)cnc4C)nn(C)c3n2)cn1 [Example 125]

Out:
1. 5.21
2. < 5.00
3. < 5.12
4. < 5.12
5. < 5.12
